Molecular target: SARS-CoV-2 Spike protein (SARS-CoV-2 Wuhan-Hu-1, UniProt P0DTC2 14-1273)
Assay: cell-based or functional assay
REPORTED PROPERTY: neutralization IC50 (µg/mL)
Express your answer in µg/mL, writing the number without its unit.

BINDER	OBSERVED VALUE
S2X259 variant antibody, VH SEQ ID NO 408 / VL SEQ ID NO 442 (antibody, V domains shown) VH: QVQLVQSGAEVKKPGSSVKVSCKASGGIFNTYTISWVRQAPGQGLEWMGRIILMSGMANYAQKIQGRVTITADKSTSTAYMELTSLRSDDTAVYYCARGFNGNYYGWGDDDAFDISGQGTLVTVYS VL: QTVLTQPPSVSGAPGQRVTISCTGSNSNIGAGYDVHWYQQLPGTAPKLLISGNSNRPSGVPDRFSGSKSGTSASLAITGLQAEDEADYYCQSYDSSLSGPNWVFGGGTKLTVL	0.19

Using the record for S2X259 variant antibody, VH SEQ ID NO 408 / VL SEQ ID NO 444 (antibody, V domains shown) VH: QVQLVQSGAEVKKPGSSVKVSCKASGGIFNTYTISWVRQAPGQGLEWMGRIILMSGMANYAQKIQGRVTITADKSTSTAYMELTSLRSDDTAVYYCARGFNGNYYGWGDDDAFDISGQGTLVTVYS VL: QTVLTQPPSVSGAPGQRVTISCTGSNSNIGAGYDVHWYQQLPGTAPKLLIYGNSNRPSGVPDRFSGSKSGTSASLAITGLQAEDEADYYCQSYDSSLSGPNWVFGGGTKLTVL , state its measured neutralization IC50.
0.167

Determine its reported neutralization IC50: S2X259 variant antibody, VH SEQ ID NO 408 / VL SEQ ID NO 443 (antibody, V domains shown) VH: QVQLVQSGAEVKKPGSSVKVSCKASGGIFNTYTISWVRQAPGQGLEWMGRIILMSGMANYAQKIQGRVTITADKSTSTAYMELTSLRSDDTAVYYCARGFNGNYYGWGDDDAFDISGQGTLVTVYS VL: QTVLTQPPSVSGAPGQRVTISCTGSNSNIGAGYDVHWYQQLPGTAPKLLIAGNSNRPSGVPDRFSGSKSGTSASLAITGLQAEDEADYYCQSYDSSLSGPNWVFGGGTKLTVL
0.0975

Recall and state the measured neutralization IC50 for S2X259 variant antibody, VH SEQ ID NO 446 / VL SEQ ID NO 412 (antibody, V domains shown) VH: QVQLVQSGAEVKKPGSSVKVSCKASGGIFNTYTISWVRQAPGQGLEWMGRIILISGIANYAQKIQGRVTITADKSTSTAYMELTSLRSDDTAVYYCARGFNGNYYGWGDDDAFDISGQGTLVTVYS VL: QTVLTQPPSVSGAPGQRVTISCTGSNSNIGAGYDVHWYQQLPGTAPKLLICGNSNRPSGVPDRFSGSKSGTSASLAITGLQAEDEADYYCQSYDSSLSGPNWVFGGGTKLTVL .
0.321

Give the value of neutralization IC50 reported for the following: S2X259 variant antibody, VH SEQ ID NO 408 / VL SEQ ID NO 445 (antibody, V domains shown) VH: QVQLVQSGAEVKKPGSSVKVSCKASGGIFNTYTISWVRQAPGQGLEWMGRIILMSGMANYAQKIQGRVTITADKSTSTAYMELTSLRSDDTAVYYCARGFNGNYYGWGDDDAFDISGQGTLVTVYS VL: QTVLTQPPSVSGAPGQRVTISCTGSNSNIGAGYDVHWYQQLPGTAPKLLIVGNSNRPSGVPDRFSGSKSGTSASLAITGLQAEDEADYYCQSYDSSLSGPNWVFGGGTKLTVL
0.19

Supply measured neutralization IC50 of S2X259 variant antibody, VH SEQ ID NO 448 / VL SEQ ID NO 412 (antibody, V domains shown) VH: QVQLVQSGAEVKKPGSSVKVSCKASGGIFSTYTISWVRQAPGQGLEWMGRIILMSGMANYAQKIQGRVTITADKSTSTAYMELTSLRSDDTAVYYCARGFNGNYYGWGDDDAFDISGQGTLVTVYS VL: QTVLTQPPSVSGAPGQRVTISCTGSNSNIGAGYDVHWYQQLPGTAPKLLICGNSNRPSGVPDRFSGSKSGTSASLAITGLQAEDEADYYCQSYDSSLSGPNWVFGGGTKLTVL in your reply.
0.0134
